Test system: Leishmania donovani
Assay: Leishmania intramacrophage assay
Assay type: functional, organism-based
Set-up: scale not given: in the data most compounds retested in dose-response had high values
Settings: 30.3 µM; […]
Among all 69,000 compounds or so, about 1,000 (1.4%) showed an effect of 50% or more. The entries come from a sample that favours strong results as a whole.
Exercise: state measured Percent Effect for each of the compounds provided.
Give bare numbers, in %.

Just so you know, measured Percent Effect for COc1ccccc1-c1ncc(CN2CCCC[C@H](N(C)C)C2)s1 came out at 36.23

Just so you know, measured Percent Effect for Cc1nc(C2CCN(C)CC2)cc(N2CCOc3ccc(Cl)cc3C2)n1 came out at 85.22

I would be grateful if you could provide Percent Effect for each of the following entries.
1. COc1ccc2cc(CN(C)C(C)c3nc(C4CC4)no3)ccc2c1 (stereo not given)
2. COc1ccccc1CNC(=O)C(C)N1CC(n2cc(C)cn2)C1 (stereo not given)
3. Cc1ccc(-c2cc(CNc3ncnc4c3CCNCC4)no2)cc1
4. Fc1ccc2[nH]c3c(c2c1)CCN1C(c2ccccn2)N2CCC31CC2 (stereo not given)
5. CC(=O)NCc1ccc(C(=O)N2CCCc3c(F)ccc(C)c32)cc1

Result:
1. 57.64
2. 25.52
3. 97.6
4. 22.17
5. 35.68
